Target: human ether-à-go-go-related gene (hERG) potassium channel (human, UniProt Q12809);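 further: peak tail current of the secondary pulse compared with the same well before compound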
Sequence (Q12809 whole entry, looked up): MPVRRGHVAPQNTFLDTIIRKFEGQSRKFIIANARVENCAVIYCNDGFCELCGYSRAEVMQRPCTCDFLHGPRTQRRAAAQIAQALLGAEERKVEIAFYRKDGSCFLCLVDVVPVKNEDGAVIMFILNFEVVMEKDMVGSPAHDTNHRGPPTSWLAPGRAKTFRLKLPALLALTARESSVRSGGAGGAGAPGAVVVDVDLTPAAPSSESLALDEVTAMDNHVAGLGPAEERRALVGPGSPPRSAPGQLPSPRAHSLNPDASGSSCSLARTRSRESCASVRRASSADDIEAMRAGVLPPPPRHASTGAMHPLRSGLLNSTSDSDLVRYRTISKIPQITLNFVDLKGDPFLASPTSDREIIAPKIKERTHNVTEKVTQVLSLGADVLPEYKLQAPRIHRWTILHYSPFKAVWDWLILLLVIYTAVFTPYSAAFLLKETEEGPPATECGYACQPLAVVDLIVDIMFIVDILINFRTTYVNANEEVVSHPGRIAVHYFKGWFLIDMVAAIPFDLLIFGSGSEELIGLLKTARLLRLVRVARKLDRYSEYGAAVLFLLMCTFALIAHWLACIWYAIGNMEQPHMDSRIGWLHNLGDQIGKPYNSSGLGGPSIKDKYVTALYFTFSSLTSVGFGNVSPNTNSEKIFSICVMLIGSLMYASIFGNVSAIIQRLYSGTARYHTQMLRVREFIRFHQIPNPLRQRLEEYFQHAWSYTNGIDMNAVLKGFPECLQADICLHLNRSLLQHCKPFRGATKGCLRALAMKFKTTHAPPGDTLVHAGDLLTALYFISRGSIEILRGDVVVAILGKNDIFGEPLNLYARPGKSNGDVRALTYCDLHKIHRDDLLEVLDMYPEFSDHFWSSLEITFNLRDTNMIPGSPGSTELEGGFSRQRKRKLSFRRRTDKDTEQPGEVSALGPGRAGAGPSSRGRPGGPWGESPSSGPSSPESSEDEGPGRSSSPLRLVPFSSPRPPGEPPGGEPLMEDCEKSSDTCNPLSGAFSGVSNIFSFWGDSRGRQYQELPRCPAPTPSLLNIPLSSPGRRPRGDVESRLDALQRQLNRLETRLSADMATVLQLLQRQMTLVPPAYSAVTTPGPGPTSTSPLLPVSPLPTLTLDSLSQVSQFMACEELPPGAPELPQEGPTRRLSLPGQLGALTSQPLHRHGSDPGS
Experiment: primary screen, population patch clamp on CHO cells stably expressing hERG; higher = less effect of the substance
Procedure: Briefly, Chinese hamster ovary (CHO) cells stably expressing the hERG channel were dislodged from tissue culture flasks and dispensed into PPC plates. […] During the recording, background leak currents were estimated by a 100 ms step to -80 mV from an initial holding potential of -70 mV and subtracted from the subsequent current measurement. The campaign was conducted in two phases using slight differences in recording protocol. […]
Screen size: about 310,000 compounds; about 14,000 (4.5%) showed an effect of 50% or more. The effect is printed as a negative number. The sample holds strong results, similar compounds and a random draw of the others, so the mix is not that of the screen.
measured.endpoint: hERG current change (%, negative = inhibition) at 10uM (%)
Please reply with the bare figure in % and do not write the unit itself.

Examples with their reported hERG current change (%, negative = inhibition) at 10uM follow.
O=C(CCCC(=O)N(CC(=O)NC1CCCCC1)Cc1ccccc1)Nc1ccccn1
-6.57
CC(C)NC(=O)CN(Cc1ccc2c(c1)OCO2)C(=O)CCC(=O)Nc1ccccn1
1.7
CCOC(=O)N1CCN(Cc2nc3cc([N+](=O)[O-])ccc3n2CC)CC1
-51.9
O=C(CCCC(=O)N(CC(=O)NC1CCCC1)Cc1ccc2c(c1)OCO2)Nc1ccccn1
-26.5

Query block: For the molecule shown here, CCOC(=O)c1c(NC(=O)CN2CCN(C)CC2)sc(C(=O)Nc2ccccc2)c1C , give the reported hERG current change (%, negative = inhibition) at 10uM.
Result block: -58.9

Query block: Another molecule to check: CCOC(=O)N1CCN(Cc2nc3cc(NC(=O)C(C)C)ccc3n2CC)CC1
Result block: 14.3

Query block: Next molecule up: CCOC(=O)N1CCN(Cc2nc3cc([N+](=O)[O-])ccc3n2C)CC1
Result block: -24.5
